- Tested on: tobacco cut worm (Spodoptera litura)
- protocolDescription: Insecticidal activity of fenvalerates on tobacco cut worm, leaf dip, 24 h (Test Example 1)
- Type: in vivo
- conditionDescription: Activity of Fenvalerate (common product) was taken as 100
quantityName: Relative Efficacy

| compound | experimentalTarget | value |
| --- | --- | --- |
| CC(C)C(C(=O)OC(C#N)c1cccc(Oc2ccccc2)c1)c1ccc(Cl)cc1 (stereo not shown) [Fenvalerate (common product), reference compound] | tobacco cut worm (Spodoptera litura) | 100 |
| CC(C)[C@H](C(=O)O[C@H](C#N)c1cccc(Oc2ccccc2)c1)c1ccc(Cl)cc1 (relative stereo) | tobacco cut worm (Spodoptera litura) | 195 |
| CC(C)C(C(=O)OC(C#N)c1cccc(Oc2ccccc2)c1)c1ccc(Cl)cc1 (stereo not shown) [Example 6] | tobacco cut worm (Spodoptera litura) | 125 |
| CC(C)C(C(=O)OC(C#N)c1cccc(Oc2ccccc2)c1)c1ccc(Cl)cc1 (stereo not shown) [Example 5] | tobacco cut worm (Spodoptera litura) | 172 |
